Tested on: Human Microvessel Endothelial Cells (HMEC)
procedure_details: Endothelial cell proliferation
Assay type: cell-based
experimental_context: triplicate, ± SEM
experimental_endpoint: IC50 (µM)

1) O=C1NC(c2ccc(-c3ccccc3)cc2)Nc2ccccc21 (stereo not shown) [SC-2-71]: 20

* * *

Test system: MDA-MB-435 cells
procedure_details: Anti-proliferative activity, SRB assay
Assay type: cell-based
experimental_context: Homo sapiens
experimental_endpoint: IC50 (µM)

1) O=C(c1ccccc1)c1ccc(C2NC(=O)c3ccccc3N2)cc1 (stereo not shown) [SC-4-283]: 0.9
2) O=C1NC(c2ccc(-c3ccccc3)cc2)Nc2ccccc21 (stereo not shown) [SC-2-71]: 0.61
3) O=C(c1ccccc1)c1ccc(C2NC(=O)c3ccccc3N2)cc1Cl (stereo not shown) [SC-5-87]: 0.26
4) Cc1ccccc1-c1ccc(C2NC(=O)c3ccccc3N2)cc1 (stereo not shown) [SC-5-121]: 0.6
